Test system: BT-549 breast
METHOD_NOTES: NCI-60 one-dose screen, 48 h (100 = growth as untreated, 0 = no growth, -100 = all killed)
ASSAY_CONDITIONS: 10 µM unless noted
This is part of a sample that, as a whole, favours compounds with a hit. Of some 83,000 tested, about 20% had one in any assay.
Threshold check on growth: at or above 50% gives Yes, strictly below gives No.

COMPOUND	SUBJECT_OF_TEST	CLASS
COc1ccc(-c2nc3ccccc3n2CC(=O)N=Nc2c(O)[nH]c3ccc(Br)cc23)cc1	BT-549 breast	Yes
COc1cc(/C=C/C(=O)c2ccc(S(=O)(=O)NCCNc3nc(N(C)C)nc(N4CCOCC4)n3)cc2)cc(OC)c1OC	BT-549 breast	No
CCCn1c(NC(=O)c2cccc(C(N)=O)c2)nc2ccc(CN3CCCCC3)cc21	BT-549 breast	No
COc1ccc(NC(=O)CSc2nnc(-c3ccc(-c4nc5ccc(Cl)cc5[nH]4)cc3)o2)cc1	BT-549 breast	No
COc1ccc([C@H]2C(C(=O)c3ccc(Cl)cc3)C3(N[C@@H]2c2ccccc2)C(=O)Nc2ccccc23)cc1 (some centres undefined)	BT-549 breast	Yes
Fc1ccc(N2CC(Cn3c(C(F)(F)F)cc4c(Cl)ncnc43)C2)c(F)c1	BT-549 breast	No
O=C(NC(=S)N1CCN(c2ncnc3c2cnn3-c2ccccc2)CC1)c1ccc(F)cc1	BT-549 breast	Yes
O=C1Nc2ccccc2/C1=C\c1ccc(OCC(=O)c2ccc(Br)cc2)cc1	BT-549 breast	Yes

---

# maps each entry to its growth
Tested on: SF-539 CNS
METHOD_NOTES: NCI-60 one-dose screen, 48 h (100 = growth as untreated, 0 = no growth, -100 = all killed)
ASSAY_CONDITIONS: 10 µM unless noted
About 83,000 compounds went through this panel and 20% of them were active in at least one assay; those are over-represented in the sample as a whole.
MEASURE_NAME: growth (%)

COMPOUND	UNIT_LABEL	TEST_RESULT
COc1ccc(C(=O)NNC(=O)CSc2nc3sc4c(c3c(=O)n2-c2ccc(Cl)cc2)CCCC4)cc1	%	-55.2
COc1ccc(N=Nc2c(N)nn3c(-c4cc5cc(Br)ccc5oc4=O)ccnc23)cc1	%	15.6
COc1ccc2[nH]c(=O)c(CSc3ccccc3Nc3nccc(-c4ccc5c(c4)OCO5)n3)cc2c1	%	95
CN(C)c1nc(NCCNS(=O)(=O)c2ccc(C3=Nc4c(N)nc(N)nc4NC(c4ccc(C(F)(F)F)cc4)C3)cc2)nc(N2CCOCC2)n1 (centres undefined)	%	34.3

---

Test system: TK-10 renal
METHOD_NOTES: NCI-60 one-dose screen, 48 h
ASSAY_CONDITIONS: 10 µM unless noted
This is part of a sample that, as a whole, favours compounds with a hit. Of some 83,000 tested, about 20% had one in any assay. Active and inactive are the calls of the source. The calls were made as follows: active = growth percent below 10; inactive = the rest.
Classes used: True = active, False = inactive

MOLECULE	CLASS
NS(=O)(=O)c1ccc(N2N=C(c3ccc(NC(=O)Nc4ccccc4)cc3)CC2c2ccc(Br)cc2)cc1 (centres undefined)	True
COc1ccc(C2=Nc3c(N)nc(N)nc3NC(c3ccc(Oc4nc(Nc5ccc(F)cc5)nc(N(C)C)n4)c(OC)c3)C2)cc1 (centres undefined)	False
CCCCC[C@@H]1C/C=C(\C)[C@@H](O)C(C)(C)C(=O)[C@@H](C)/C=C(\C)[C@@H]2C[C@H](O)C[C@](O)(CC(=O)O1)O2	False
COc1ccc(NC(=O)NN2C(=O)c3ccccc3N(C)C2c2ccc(OC)cc2)cc1 (centres undefined)	False

---

System: EKVX NSCLC
METHOD_NOTES: NCI-60 one-dose screen, 48 h
ASSAY_CONDITIONS: 10 µM unless noted
The panel holds about 83,000 compounds, 20% with a hit somewhere; the sample as a whole holds those more often. Active and inactive are the calls of the source. Rule for the calls: active = growth percent below 10; inactive = the rest.
Classes used: TRUE for active, FALSE for inactive

COMPOUND	CLASS
COc1ccc2[nH]cc(-c3cc4nc(-c5cn(C)c6ncc(Br)cc56)cc(N)n4n3)c2c1	TRUE
FC(F)(F)CN1CCN(CCn2c(C(F)(F)F)cc3c(Cl)ncnc32)CC1	FALSE
O=C(c1ccc(Cl)cc1)C1[C@H](c2ccccc2Cl)[C@@H](c2ccccc2)NC12C(=O)Nc1ccc(Br)cc12 (some centres undefined)	TRUE
COc1ccc(-c2cc(-c3cc(OC)c(OC)c(OC)c3)[nH]c(=O)c2C#N)cc1	FALSE
Cc1ccc(C(=O)Nc2cc(-c3ccccc3)cc(C(F)(F)F)c2)cc1C#Cc1cnc2cccnn12	FALSE
Nc1cc(-c2c[nH]c3ccc(F)cc23)nc2cc(-c3c[nH]c4ccccc34)nn12	TRUE
Cc1ccc(C(C)C)cc1Oc1cccc(-c2c(-c3ccc(C(F)(F)F)cc3)ncn2C2CCNCC2)n1	TRUE
CC(C)(C)OC(=O)N1C/C(=C\c2ccc(F)cc2)C(=O)/C(=C/c2ccc(F)cc2)C1	TRUE
C=CCSc1nnc(-c2c(C)nc3sccn23)o1	FALSE

---

System: MDA-MB-468 breast
METHOD_NOTES: NCI-60 one-dose screen, 48 h (100 = growth as untreated, 0 = no growth, -100 = all killed)
ASSAY_CONDITIONS: 10 µM unless noted
The panel holds about 83,000 compounds, 20% with a hit somewhere; the sample as a whole holds those more often.
Class membership depends on growth alone; the intervals are L (below -20%), M (-20% to below 30%), H (30% or more)

MOLECULE	CLASS
CS(=O)(=O)c1ccc(-n2nc(C(=O)NCc3ccccc3)cc2-c2ccc(Cl)cc2)cc1	H
Cc1ccccc1NC(=O)c1cccc(NC(=O)CCl)c1	M
O=C(CSc1nc2sc3c(c2c(=O)n1-c1ccc(Cl)cc1)CCCC3)NNC(=O)c1ccc(Br)cc1	H
CN(C)c1nc(NCCNS(=O)(=O)c2ccc(C3=Nc4c(N)nc(N)nc4NC(c4ccc(C(F)(F)F)cc4)C3)cc2)nc(N2CCOCC2)n1 (stereo unspecified)	M
O=C(c1ccc(Cl)cc1)C1[C@H](c2ccccc2Cl)[C@@H](c2ccccc2)NC12C(=O)Nc1ccccc12 (stereo partly specified)	L
CN(C)c1nc(NCCNS(=O)(=O)c2ccc(C3=Nc4c(N)nc(N)nc4NC(c4ccc(Cl)cc4)C3)cc2)nc(N2CCOCC2)n1 (stereo unspecified)	M
Cn1cc(-c2cc(N)n3nc(-c4c[nH]c5ccccc45)cc3n2)c2cc(Cl)ccc21	L
COc1ccc(C2=Nc3c(N)nc(N)nc3NC(c3ccc(Oc4nc(Nc5ccc(F)cc5)nc(N(C)C)n4)c(OC)c3)C2)cc1 (stereo unspecified)	M
COc1cc(NC(=O)CSc2nnc(-c3ccc(-c4nc5ccc(Cl)cc5[nH]4)cc3)o2)cc(OC)c1OC	M
Cc1ccc(Nc2nnc(-c3c[nH]c4ccccc34)o2)c(C)c1	M
COc1cc(-c2ccc3ncnc(N4CCc5ccc(Cl)cc54)c3c2)cnc1Cl	M
CS(=O)(=O)Nc1cncc(-c2ccc3ncnc(NCc4ccccc4)c3c2)c1	L
O=C1NC(=S)/C(=C/c2cn(-c3ccccc3)nc2-c2ccccc2)S1	M
COc1ccc(-c2nc3ccccc3n2CC(=O)N=Nc2c(O)[nH]c3ccc(Br)cc23)cc1	H
O=C(N/N=C/c1c[nH]c2ccccc12)Nc1ccccc1Cl	L
Cc1ccccc1Nc1nnc(-c2c[nH]c3ccccc23)o1	L
Cc1ccc(C(=O)Nc2cccc(C(=O)NC(=S)Nc3ccc(S(N)(=O)=O)cc3)c2)cc1	H
O=C1N/C(=N\c2nccs2)S/C1=C\c1ccc([N+](=O)[O-])cc1	M
Cn1cc(-c2cc(N)n3nc(-c4c[nH]c5ccc(F)cc45)cc3n2)c2cc(Br)cnc21	M
CN1CCN(C(=O)CCN(C(=O)Oc2cc3c(c4ccccc24)[C@H](CCl)CN3C(=O)c2cc3cc(OCCCN4CCC4)ccc3[nH]2)[C@H]2CCSSC2)CC1	L
CC(C)(C)C(=O)C1CC(C#N)=C2C=Cc3c(ccc4ccccc34)N21 (stereo unspecified)	H
O=C1Nc2ccccc2/C1=C\c1ccc(OCC(=O)c2ccc(Br)cc2)cc1	H
COc1ccc(-c2cc(-c3ccccc3)c(C#N)c(=O)[nH]2)cc1S(N)(=O)=O	H
COc1cc(CNC(=O)C[C@H](C)CCC=C(C)C)ccc1OCc1cn(-c2ccc(Cl)c(Cl)c2)nn1	H
CN1CCN(CCS(=O)(=O)Nc2cc(-c3ccc4ncnc(Nc5ccc(F)c(Cl)c5)c4c3)cnc2Cl)CC1	L
COc1ccc(/C=C/c2nc3ccccc3c(=O)n2CC(=O)Nc2ccccc2)cc1	H
Nc1cc(-c2c[nH]c3ccc(F)cc23)nc2cc(-c3c[nH]c4ccccc34)nn12	M
CCC1(OC(=O)c2ccccc2SSCCOC(=O)CCCCC2SCC3NC(=O)NC32)C(=O)OCc2c1cc1n(c2=O)Cc2cc3ccccc3nc2-1 (stereo unspecified)	M
O=C(NNC(=O)c1ccc(OCc2nc3ccc(Cl)cc3[nH]2)cc1)Nc1ccc(Cl)c(Cl)c1	M
O=C(N/N=C/c1ccc(B(O)O)s1)c1[nH]c2ccc(Br)cc2c1-c1ccccc1	L
COc1cccc2nc(Nc3cccc(NC(=O)c4ccc(CN5CCN(C)CC5)c(C(F)(F)F)c4)c3)ccc12	L
COc1ccc(N=Nc2c(N)nn3c(N)c(C#N)c(-c4ccc(C)cc4)nc23)cc1	H
COc1ccc(NC(=O)NN2C(=O)c3ccccc3N(C)C2c2ccc(OC)cc2)cc1 (stereo unspecified)	H
CS(=O)(=O)Nc1cc(-c2ccc3ncnc(Nc4ccc(OCc5cccnc5)c(Cl)c4)c3c2)cnc1Cl	L

Data credit: PubChem BioAssay (NCI)
